These data points were gathered from PubChem BioAssay AID1259251.

biological target: Serine/threonine-protein kinase ULK1 (Homo sapiens) (UniProt O75385); experiment: inhibition of human autophagy kinase ULK1 – biochemical, AlphaScreen, primary screen (AID 1259251); conditions: AlphaScreen Atg13 phosphorylation by ULK1, luminescence; at 5.96 µM; active compounds read high;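 further: 0% = median of compound wells and 100% = no enzyme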
Sequence (O75385 whole entry, looked up): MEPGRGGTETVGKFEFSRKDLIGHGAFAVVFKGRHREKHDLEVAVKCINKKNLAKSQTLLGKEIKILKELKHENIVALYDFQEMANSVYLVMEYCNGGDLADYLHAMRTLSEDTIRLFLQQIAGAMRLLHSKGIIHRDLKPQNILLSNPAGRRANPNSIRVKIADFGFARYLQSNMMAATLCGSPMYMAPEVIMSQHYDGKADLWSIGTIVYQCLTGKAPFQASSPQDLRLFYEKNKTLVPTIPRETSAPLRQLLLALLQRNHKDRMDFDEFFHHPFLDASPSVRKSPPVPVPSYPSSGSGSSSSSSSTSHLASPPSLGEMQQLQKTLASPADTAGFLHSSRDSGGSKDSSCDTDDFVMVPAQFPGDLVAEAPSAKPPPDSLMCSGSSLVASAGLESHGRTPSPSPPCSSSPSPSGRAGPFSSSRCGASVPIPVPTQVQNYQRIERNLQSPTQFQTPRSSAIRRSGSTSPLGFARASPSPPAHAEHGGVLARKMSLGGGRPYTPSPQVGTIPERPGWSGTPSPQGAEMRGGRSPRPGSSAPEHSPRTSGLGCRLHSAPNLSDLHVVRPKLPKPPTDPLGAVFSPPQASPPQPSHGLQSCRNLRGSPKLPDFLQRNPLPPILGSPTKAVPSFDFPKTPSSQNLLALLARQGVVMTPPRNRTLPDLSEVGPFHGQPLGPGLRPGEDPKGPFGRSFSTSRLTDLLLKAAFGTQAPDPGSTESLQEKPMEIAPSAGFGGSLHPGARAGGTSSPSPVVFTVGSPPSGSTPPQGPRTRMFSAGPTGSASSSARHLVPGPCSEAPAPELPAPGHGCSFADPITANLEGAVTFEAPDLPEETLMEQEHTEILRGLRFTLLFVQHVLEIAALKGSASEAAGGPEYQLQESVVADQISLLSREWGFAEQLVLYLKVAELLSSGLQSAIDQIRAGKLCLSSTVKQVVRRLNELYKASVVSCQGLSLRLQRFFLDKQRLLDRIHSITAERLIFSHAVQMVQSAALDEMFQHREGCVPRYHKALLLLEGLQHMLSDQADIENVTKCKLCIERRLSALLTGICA
Hit rate of the full screen: of about 30,000 compounds, about 580 (1.9%) were called active. This is one part of a sample in which actives are shown more often than they occur.
value-type: inhibition (%)
Just the number please, in %, no unit attached.

Reference set (4 entries):
{"columns": ["molecule", "inhibition [%]"],
 "data": [
  ["OCCNc1nc(Nc2ccc3ncccc3c2)nc2nc[nH]c12", 62.7],
  ["O=C(Nc1ccc(-c2cn[nH]c2)cc1)C1CCc2ccccc2O1 (configuration not stated)", 12.4],
  ["O=C(NCc1cccc(C(F)(F)F)c1)c1cnc(NCCCN2CCCC2=O)s1", -7.22],
  ["COc1ccc(-n2cc(-c3ccccc3[N+](=O)[O-])cn2)cc1", -17.3]
]}

Query: Which value of inhibition has been reported for Fc1cnc(Nc2ccc(Cn3ccnc3)cc2)nc1-c1cccc(N2CCOCC2)c1 in the records?
Reply: 45.9

Query: Which value of inhibition has been reported for Cc1ccc(-c2ncn(-c3ccc(Nc4ncc(F)c(-c5cccc(N6CCOCC6)c5)n4)cc3)n2)cn1 in the records?
Reply: -16.4

Query: Which value of inhibition has been reported for O=C(NCc1cccc(NC(=O)C2CC2)c1)Nc1ccc(-c2cn[nH]c2)cc1 in the records?
Reply: 6.93

Query: Which value of inhibition has been reported for CCOC(=O)c1cc[n+](CC(=O)c2ccc(NC(=O)c3ccccc3)cc2)cc1 in the records?
Reply: 3.76

Query: Which value of inhibition has been reported for c1ccc(-c2ncn[nH]2)c(Nc2ccnc(Nc3ccc(N4CCOCC4)cc3)c2)c1 in the records?
Reply: 24.2

Query: Which value of inhibition has been reported for C1=C2[C@@H](c3ccccc3)N3CCC[C@@H]3[C@H]3CCC[C@@]23OCC1 in the records?
Reply: -9.95

Query: Which value of inhibition has been reported for Cn1c(Nc2nc(NCc3cccc(C(F)(F)F)c3)c3ncn(C4CCCCC4)c3n2)nc2ccccc21 in the records?
Reply: 8.91

Query: Which value of inhibition has been reported for CCN(C(=O)c1ccc(Br)cc1)c1ccccc1 in the records?
Reply: 2.64
